Assay: CCTE_Shafer_MEA_acute_network_burst_percentage: CCTE's Neural Acute Assay for Percentage of Network Bursts, Shafer Lab (AID 2284022);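 further: curves fitted for loss so actives lower network burst percentage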
Activity calls are given as the source filed them. How the source made its calls: active means hit-call score of the fitted dose curve at least 0.9, where 1 is the maximum; inactive means score below 0.9.
Possible outcomes: active, inactive

{"columns": ["compound", "cat"],
 "data": [
  ["CO/C=C(/C(=O)OC)c1ccccc1COc1cccc(C(F)(F)F)n1", "active"],
  ["CC(C)C(=O)OCC(C)(C)C(OC(=O)C(C)C)C(C)C (configuration not stated)", "inactive"],
  ["ClC1=C(Cl)[C@]2(Cl)[C@@H]3[C@H]4C[C@H]([C@@H]5O[C@H]45)[C@@H]3[C@@]1(Cl)C2(Cl)Cl", "inactive"],
  ["O=C(N[C@H]1CN2CCC1CC2)c1cc2ccoc2cn1", "inactive"],
  ["CCCCCCCCCc1ccc(O)cc1", "active"],
  ["Oc1ccc(C(c2ccc(O)cc2)(C(F)(F)F)C(F)(F)F)cc1", "inactive"],
  ["CC#Cc1cc(C)nc(Nc2ccccc2)n1", "active"]
]}
